Tested on: p97-dependent Ub^G76V-GFP degradation in HeLa cells
Assay: Ub^G76V-GFP degradation (turn-over) assay
Type: cell-based, human
Details: Homo sapiens, HeLa, read-out: IC50 (μM) Ub^G76V-GFP turn over, p97-dependent Ub^G76V-GFP degradation turn-over assay
Doc: threshold 9 µM (exclusive). Items with IC50 beneath it return 1 (yes); others return 0 (no).

>>> classname("COc1cccc2c(NCc3ccccc3)nc(NC(N)=O)nc12")
"0 (no)"
>>> classname("Clc1ccccc1Nc1nc(NCc2ccccc2)c2ccccc2n1")
"0 (no)"
>>> classname("c1ccc(-c2nc(N3CCc4ccccc4C3)c3ccccc3n2)cc1")
"0 (no)"
>>> classname("COc1cccc2c(NCc3ccccc3N(C)C)nc(N3CCOc4ccccc43)nc12")
"1 (yes)"
>>> classname("N#CC(C(=O)COC(=O)COc1ccc(Cl)cc1)=C1Nc2ccccc2N1")
"1 (yes)"
>>> classname("CN(Cc1ccccc1)c1nc(-c2ccccc2F)nc2ccccc12")
"1 (yes)"
>>> classname("Cc1cc(OCC(=O)OCC(=O)C(C#N)=C2Nc3ccccc3N2)ccc1Cl")
"0 (no)"
>>> classname("COc1cccc2c(NCc3ccccc3)nc(N3CCOCC3)nc12")
"0 (no)"
>>> classname("Nc1nc(CCl)nc(N2CCCc3ccccc32)n1")
"0 (no)"
